# key: entry, value: IC50
# experimental-target: UniProt:P21730
# measurement-protocol: Inhibition of C5a-C5aR binding determined by cell migration assay (U937/C5aR cells)
# Type: cell-based
# assay-conditions: U937/C5aR cell migration towards human C5a, 180 min

See these solved cases before continuing.
Cc1ccc(NC(=O)[C@H]2C[C@H]3CCC[C@H]3N(C(=O)c3c(C)cccc3F)[C@H]2c2ccc(NC3CCCC3)cc2)cc1C(F)(F)F : < 50 nM
Cc1cccc(F)c1C(=O)N1C2CCCC2CC(C(=O)Nc2ccc3c(cnn3C)c2)C1c1ccc(CN2CCC[C@@H]2C(F)(F)F)cc1 (stereo in doubt) : < 50 nM
Cc1cccc(F)c1C(=O)N1[C@@H]2CCC[C@@H]2C[C@H](C(=O)Nc2ccc3cnn(C)c3c2)[C@@H]1c1ccc(NC2CCCC2)cc1 (racemic) : < 50 nM

Which IC50 value belongs to `Cc1cccc(F)c1C(=O)N1[C@@H]2COC[C@@H]2C[C@H](C(=O)Nc2ccc3c(ccn3C)c2)[C@@H]1c1ccc(NC2CCCC2)cc1` ?
50 to 500 nM

Which IC50 value belongs to `Cc1ccc(NC(=O)[C@H]2C[C@H]3COC[C@H]3N(C(=O)c3c(C)cccc3F)[C@H]2c2ccc(NC3CCCC3)cc2)cc1C(F)(F)F` ?
< 50 nM

Which IC50 value belongs to Cc1cccc(F)c1C(=O)N1C2CCC[C@@H]2C[C@H](C(=O)Nc2cccnc2)[C@@H]1c1ccc(NC2CCCC2)cc1 (relative stereo) ?
50 to 500 nM

---

pIC50: −log10 of the molar value.
A set of compounds tested on human C5a receptor (C5aR) (Homo sapiens (Human)), with measured pIC50:

See these solved cases before continuing.
Cc1cccc(F)c1C(=O)N1[C@@H]2CCC[C@@H]2C[C@H](C(=O)Nc2ccc3cnn(C4COC4)c3c2)[C@@H]1c1ccc(NC2CCCC2)cc1 (racemic) : 6.30 to 7.30
Cc1ccc(NC(=O)[C@H]2C[C@H]3CCC[C@H]3N(C(=O)c3c(C)cccc3F)[C@H]2c2ccc(NC3CCCC3)cc2)cn1 (racemic) : > 7.30
Cc1cccc(F)c1C(=O)N1C(c2ccc(NC3CCCC3)cc2)C(C(=O)Nc2ccc3c(cnn3C)c2)C[C@@H]2COC[C@@H]21 (relative stereo) : 6.30 to 7.30
Cc1ccc(NC(=O)[C@H]2CCCN(c3ncnc4ccccc34)[C@H]2c2ccc(NC3CCCC3)cc2)cc1C(F)(F)F : 6.30 to 7.30
Cc1ccc(NC(=O)[C@H]2CCCN(S(=O)(=O)c3c(F)cccc3F)[C@H]2c2ccc(NC3CCCC3)cc2)cc1C(F)(F)F : 5.30 to 5.70

Next, consider the following compound.
Hello, I am looking for reported pIC50 with human C5a receptor (C5aR) (Homo sapiens (Human)) for Cc1cccc(F)c1C(=O)N1[C@@H]2CCC[C@@H]2C[C@H](C(=O)Nc2cccc(S(C)(=O)=O)c2)[C@@H]1c1ccc(NC2CCCC2)cc1 (racemic) . Could you help?
5.70 to 6.30

---

# key: entry, value: IC50
# experimental-target: C5aR (Homo sapiens (Human), UniProt P21730)
# Sequence (P21730 whole entry): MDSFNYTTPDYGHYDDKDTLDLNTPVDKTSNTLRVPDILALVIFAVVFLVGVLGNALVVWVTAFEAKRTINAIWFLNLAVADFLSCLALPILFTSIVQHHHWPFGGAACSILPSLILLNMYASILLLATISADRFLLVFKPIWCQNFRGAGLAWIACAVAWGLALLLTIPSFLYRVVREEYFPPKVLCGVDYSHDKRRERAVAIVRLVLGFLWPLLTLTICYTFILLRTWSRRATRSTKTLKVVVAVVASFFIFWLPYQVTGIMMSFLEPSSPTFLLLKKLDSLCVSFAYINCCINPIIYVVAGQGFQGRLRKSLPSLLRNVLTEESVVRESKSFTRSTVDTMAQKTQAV
# measurement-protocol: Calcium mobilization (U937/C5aR or HEK293/C5aR cells, FLIPR)
# Format: cell-based
# assay-conditions: agonist human C5a at EC80, FLIPR
# Method: U937/C5aR cells or HEK293/C5aR cells were washed by PBS and suspended in growth media at the density of 1×10^6 cells/ml. […] to the 384-well plate and culture for overnight. Transfer 250 nl compound solution to the cell plate using Echo, incubate for 60 min. Cells were added with Fluo-4 Direct™ dye and incubate for 50 min at 37° C. 5% CO2 and 10 m at room temperature. Place the cell plate into […] (Molecular Devices). […]

See these solved cases before continuing.
Cc1ccc(NC(=O)[C@H]2CCCN(S(=O)(=O)c3ccccc3F)[C@H]2c2ccc(NC3CCCC3)cc2)cc1C(F)(F)F : > 10000 nM
Cc1ccc(NC(=O)[C@H]2CCCN(S(=O)(=O)c3c(C)cccc3C)[C@H]2c2ccc(NC3CCCC3)cc2)cc1C(F)(F)F : 2000 to 10000 nM
Cc1ccc(NC(=O)[C@H]2C[C@H]3COC[C@H]3N(C(=O)c3c(C)cccc3F)[C@H]2c2ccc(NC3CCCC3)cc2)cc1C(F)(F)F : 50 to 500 nM
Cc1ccc(NC(=O)[C@H]2CCCN(S(=O)(=O)c3ccccc3Cl)[C@H]2c2ccc(NC3CCCC3)cc2)cc1C(F)(F)F : > 10000 nM
Cc1ccc(NC(=O)[C@H]2CCCN(S(=O)(=O)c3ccccc3C)[C@H]2c2ccc(NC3CCCC3)cc2)cc1C(F)(F)F : > 10000 nM

Hello, I am looking for reported IC50 with C5aR (Homo sapiens (Human), UniProt P21730) for `Cc1cccc(F)c1C(=O)N1[C@@H]2COC[C@@H]2C[C@H](C(=O)Nc2ccc3c(cnn3C)c2)[C@@H]1c1ccc(NC2CCCC2)cc1` . Could you help?
2000 to 10000 nM

These measurements were taken from patent US20240043439A1.
